molecular target: U2AF2^1,2L inter-RRM linker deletion – DEK ^FlRNA (Homo sapiens, UniProt P26368, DEL238-257); assay: Fluorescence polarization, U2AF2^1,2L inter-RRM linker deletion with DEK FlRNA; conditions: read-out: EC50 for enhancing RNA binding; inter-RRM linker deletion variant
reported.metric: pEC50
Formally, pEC50 is defined as -log10 of the concentration c, with c in mol/L.

Any idea what pEC50 was measured for CC1(C)C2CCC(CN=C(N)CSS(=O)(=O)O)C1C2 (stereo not shown) [NSC 194308] ?
3.54
